target-of-assay: human ether-à-go-go-related gene (hERG) potassium channel (human);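 note: peak tail current of the secondary pulse compared with the same well before compound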
Sequence (Q12809 whole entry, looked up): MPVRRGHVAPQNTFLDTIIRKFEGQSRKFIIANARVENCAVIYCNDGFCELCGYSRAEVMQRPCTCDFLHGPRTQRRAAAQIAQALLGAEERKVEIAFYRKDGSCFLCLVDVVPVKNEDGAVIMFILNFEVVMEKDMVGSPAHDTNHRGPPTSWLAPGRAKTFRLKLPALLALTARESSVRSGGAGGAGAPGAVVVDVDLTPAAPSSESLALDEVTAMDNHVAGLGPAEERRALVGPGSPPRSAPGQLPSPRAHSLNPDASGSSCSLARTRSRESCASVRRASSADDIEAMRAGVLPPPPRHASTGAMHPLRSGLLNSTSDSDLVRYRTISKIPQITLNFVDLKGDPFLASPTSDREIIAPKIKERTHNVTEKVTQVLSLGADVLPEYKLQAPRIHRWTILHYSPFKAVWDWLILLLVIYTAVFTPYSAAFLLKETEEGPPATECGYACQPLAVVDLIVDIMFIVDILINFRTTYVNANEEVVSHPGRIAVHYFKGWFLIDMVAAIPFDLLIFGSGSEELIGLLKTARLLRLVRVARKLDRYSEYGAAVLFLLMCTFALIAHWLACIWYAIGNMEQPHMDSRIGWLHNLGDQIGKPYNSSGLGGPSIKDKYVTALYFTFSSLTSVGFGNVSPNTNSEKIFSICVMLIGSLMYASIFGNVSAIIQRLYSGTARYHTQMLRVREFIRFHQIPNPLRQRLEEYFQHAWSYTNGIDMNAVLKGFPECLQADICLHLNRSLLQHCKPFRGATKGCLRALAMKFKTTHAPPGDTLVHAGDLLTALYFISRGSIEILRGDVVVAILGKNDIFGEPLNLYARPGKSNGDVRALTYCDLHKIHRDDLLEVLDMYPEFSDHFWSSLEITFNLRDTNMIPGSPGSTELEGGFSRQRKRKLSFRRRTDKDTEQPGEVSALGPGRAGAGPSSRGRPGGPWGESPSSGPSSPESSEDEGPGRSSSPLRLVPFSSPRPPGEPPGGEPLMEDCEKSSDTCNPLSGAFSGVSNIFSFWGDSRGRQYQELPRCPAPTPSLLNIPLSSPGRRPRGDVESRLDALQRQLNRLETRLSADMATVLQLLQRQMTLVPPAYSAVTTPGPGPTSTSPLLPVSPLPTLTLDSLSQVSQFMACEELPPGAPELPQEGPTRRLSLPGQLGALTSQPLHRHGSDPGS
procedure-text: primary screen, population patch clamp on CHO cells stably expressing hERG; higher = less effect of the substance
The campaign covered roughly 310,000 compounds. About 14,000 (4.5%) showed an effect of 50% or more. Effects have a minus sign here. This excerpt belongs to a sample that is enriched for strong results.
measurement-type: hERG current change (%, negative = inhibition) at 10uM (%)

molecule | test-value
CCc1ccc(NC(=O)CN2CCC(C(=O)c3ccc(OC)cc3)CC2)cc1 | -62.8
CCOC(=O)N1CCN(C(=O)c2ccc(C)c(S(=O)(=O)N3CCCCC3)c2)CC1 | -46
COc1ccc(CC(=O)c2ccc(O)cc2O)cc1 | -3.19
C(#Cc1ccccc1)CN1CCOCC1.Cl | 22.9
Cc1c(O)c(S(=O)(=O)c2ccccc2)c(=O)n(-c2ccccc2)c1-c1ccccc1 | 3.84
CCN(CC)c1ccc(N)cc1S(=O)(=O)Nc1ccc(OC)cc1 | -4.91
Cc1cc(C)cc(NC(=O)CN2CCC(C(=O)c3ccccc3)CC2)c1 | -48.6
COc1ccc(NC(=O)CN2CCC(C)CC2)cc1 | -4.51
COc1ccc(OC)c(NC(=O)CN2CCC(C(=O)c3ccc(C)cc3)CC2)c1 | -17.7
CCC(C)Sc1nc2c(c(=O)[nH]c(=O)n2C)n1C (stereo not shown) | -4.04

From: paper PMC4336329
